# target: furin, P09958;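 also: purified furin at 1:10 enzyme:substrate in 50 mM HEPES pH 7.5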
# Sequence (P09958 whole entry): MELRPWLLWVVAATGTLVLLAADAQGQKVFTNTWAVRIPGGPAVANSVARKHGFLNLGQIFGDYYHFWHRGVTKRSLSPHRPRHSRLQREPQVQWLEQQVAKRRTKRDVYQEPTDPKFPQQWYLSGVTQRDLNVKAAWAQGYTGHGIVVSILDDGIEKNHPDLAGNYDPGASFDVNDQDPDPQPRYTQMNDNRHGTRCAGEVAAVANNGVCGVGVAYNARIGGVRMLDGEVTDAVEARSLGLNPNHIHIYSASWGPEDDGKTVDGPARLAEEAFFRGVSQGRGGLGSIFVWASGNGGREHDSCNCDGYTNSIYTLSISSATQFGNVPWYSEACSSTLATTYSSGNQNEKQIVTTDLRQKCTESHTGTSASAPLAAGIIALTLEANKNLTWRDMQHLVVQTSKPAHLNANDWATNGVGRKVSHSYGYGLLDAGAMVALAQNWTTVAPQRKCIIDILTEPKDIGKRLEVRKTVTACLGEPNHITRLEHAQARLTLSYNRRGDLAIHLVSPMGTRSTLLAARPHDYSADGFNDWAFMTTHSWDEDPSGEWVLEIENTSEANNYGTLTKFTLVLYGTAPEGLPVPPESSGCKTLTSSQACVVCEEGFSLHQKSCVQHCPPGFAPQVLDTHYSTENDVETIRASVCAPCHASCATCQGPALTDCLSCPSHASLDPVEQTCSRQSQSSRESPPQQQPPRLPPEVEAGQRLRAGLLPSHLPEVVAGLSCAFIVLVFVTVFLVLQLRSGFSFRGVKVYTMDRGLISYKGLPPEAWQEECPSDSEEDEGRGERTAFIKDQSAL
# assay: furin cleavage Z-score vs untreated control; higher = more cleavage, active = 3.5 or more, inactive = 1 or less, 8 variable residues between constant flanks
# protocol conditions: 30 min
This is one part of the list. The true hit rate is not given.
The label depends only on furin cleavage Z-score: YES if it is at least 0.9, NO if it is smaller.

Previously resolved entries follow.
{"columns": ["residue string", "assigned category"],
 "data": [
  ["CAWCTTPCSGAGNASASA [HC1948]", "YES"],
  ["CARREVPCHRAGNASASA [HC2433]", "YES"],
  ["CAGRCREKRRAGNASASA [FS-431]", "YES"]
]}

Item CAMWHREKRRAGNASASA [FS-1141] with furin cleavage Z-score of 0.9 or above? YES

Check if furin cleavage Z-score >= 0.9 (inclusive). Item: CAEYVTSTWVAGNASASA [HC2169] NO

All values here come from the supplement of paper PMC3545927.
